Tested on: Digitaria sanguinalis (DIGSA)
Experiment: Example B pre-emergence herbicidal greenhouse test
Assay type: in vivo
Conditions: 480 h, evaluated after 20 days, 100=total damage to plant, 0=no damage
READOUT_KIND: pest or weed control at 250 g/ha (%)
Answer with a number only, understood to be in %.

// known answers, use as guide
CCc1ccc(-c2ccccc2)cc1C1=C(O)[C@H]2CC[C@H](C2)C1=O (single isomer, unassigned) ... 0
CCc1ccc(-c2ccc(Cl)cc2)cc1C1=C(O)[C@H]2CC[C@H](CC2)C1=O ... 100
CCc1ccc(-c2ccc(Cl)cc2Cl)cc1C1=C(OC(C)=O)[C@H]2CC[C@H](C2)C1=O (single isomer, unassigned) ... 80
Cc1ccc(-c2ccc(Cl)c(C(F)(F)F)c2)cc1C1=C(O)[C@H]2CC[C@H](C2)C1=O (single isomer, unassigned) ... 70
Cc1ccc(-c2ccc(Cl)c(C#N)c2)cc1C1=C(O)[C@H]2CC[C@H](C2)C1=O (single isomer, unassigned) ... 80

Consider now this further compound.
Prompt: # query: pest or weed control at 250 g/ha of entry Cc1ccc(-c2cccc(Cl)c2)cc1C1=C(O)[C@H]2CC[C@H](C2)C1=O (single isomer, unassigned)
Response: 20
